# assayTarget: Rac GTPase-activating protein 1 (Homo sapiens) (UniProt Q9H0H5)
# Sequence (Q9H0H5 whole entry, looked up): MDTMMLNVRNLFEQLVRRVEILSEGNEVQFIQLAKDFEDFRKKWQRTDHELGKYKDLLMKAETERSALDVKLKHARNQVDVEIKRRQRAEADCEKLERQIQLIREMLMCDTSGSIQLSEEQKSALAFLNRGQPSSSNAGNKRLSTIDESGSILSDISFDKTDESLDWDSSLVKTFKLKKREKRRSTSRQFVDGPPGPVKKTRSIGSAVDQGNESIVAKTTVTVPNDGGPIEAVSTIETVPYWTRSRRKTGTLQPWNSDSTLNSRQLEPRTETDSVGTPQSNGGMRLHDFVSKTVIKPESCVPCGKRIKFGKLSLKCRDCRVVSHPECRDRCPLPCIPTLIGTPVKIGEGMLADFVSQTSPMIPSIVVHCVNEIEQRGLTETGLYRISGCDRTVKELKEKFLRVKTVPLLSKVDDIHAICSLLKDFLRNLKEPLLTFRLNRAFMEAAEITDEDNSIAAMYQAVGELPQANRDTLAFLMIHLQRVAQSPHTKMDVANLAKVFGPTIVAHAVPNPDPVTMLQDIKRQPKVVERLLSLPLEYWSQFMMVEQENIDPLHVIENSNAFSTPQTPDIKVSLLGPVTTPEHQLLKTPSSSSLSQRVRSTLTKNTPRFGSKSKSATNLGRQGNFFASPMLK
# assayName: blockers of MgcRacGAP-driven Rac1 GTP hydrolysis – biochemical, ADP Hunter fluorescence, primary and confirmatory, confirmation (AID 624330);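 also: fluorescence reports GDP produced by GAP-driven GTP hydrolysis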
# testSettings: MgcRacGAP-stimulated Rac1 GTP hydrolysis, at 30 µM, stronger effect = higher value, GST-tagged Rac1 F28L mutant substrate
Out of some 340,000 compounds screened, about 2,100 (0.62%) were called active. A selection follows. Measured potencies and affinities stand elsewhere.
endpointName: inhibition (%)
Express your answer in %, writing the number without its unit.

Guide cases for inhibition, answers given:
# compound, assayTarget, resultUnit, inhibition
records = [
    ("O=[N+]([O-])c1cccc(/C=N/n2cnnc2)c1O", "Rac GTPase-activating protein 1 (Homo sapiens) (UniProt Q9H0H5)", "%", 4.49),
    ("Cc1cc(=O)oc2c(CN3CCCC3)c(O)ccc12", "Rac GTPase-activating protein 1 (Homo sapiens) (UniProt Q9H0H5)", "%", 6.69),
    ("Cc1sc2ncnc(N3CCC(C(=O)Nc4ccc(S(N)(=O)=O)cc4)CC3)c2c1C", "Rac GTPase-activating protein 1 (Homo sapiens) (UniProt Q9H0H5)", "%", 6.51),
    ("COc1ccc(Br)cc1C1Nc2cccc3cccc(c23)N1", "Rac GTPase-activating protein 1 (Homo sapiens) (UniProt Q9H0H5)", "%", 13.1),
    ("Cc1ccc(S(=O)(=O)N2CCCCC2)cc1NC(=O)CSc1nnc(C2CC2)n1N", "Rac GTPase-activating protein 1 (Homo sapiens) (UniProt Q9H0H5)", "%", 4.18),
    ("Cc1c(O)ccc2c(CN3CCOCC3)cc(=O)oc12", "Rac GTPase-activating protein 1 (Homo sapiens) (UniProt Q9H0H5)", "%", 17.9),
]

# compound CCOc1ccccc1C(C(=O)NC1CCCC1)N(Cc1ccco1)C(=O)CNC(=O)c1ccco1 (stereo unspecified) ; its inhibition = 5.39

Memo: "O=C(NNC(=O)c1cc2ccccc2cc1O)c1cccs1" , reported inhibition: 3.14

The compound listed as "COc1cc(C2Nc3cccc4cccc(c34)N2)cc(OC)c1O" shows inhibition equal to 12.2

Record "COc1ccc(NC(=O)CSc2nc3ccccc3cc2Cc2ccccc2)cc1" . Reported inhibition: 3.45

The compound identified as "COc1cccc(CNc2cnc3ccccc3c2)c1O" registered its inhibition at 1.26

Consider "Cc1cc(-c2ccccc2)nc(N/N=C/c2ccccc2)n1" . Its measured inhibition is 4.11

Value of measured inhibition for the entry "CC[C@@]1(C(=O)OC)N[C@H](CN(C)C(=O)COC)[C@@H]2C(=O)N(C)C(=O)[C@@H]21" : 6.93

Consider COc1ccc(C2(C)NC(=O)N(CC(=O)Nc3c(C)n(C)n(-c4ccccc4)c3=O)C2=O)cc1 (stereo unspecified) . Its measured inhibition is -6.4

The compound identified as "COc1ccc(OC)c(/C=N/c2c(-c3ccc(O)c(OC)c3)nc3ccccn23)c1" registered its inhibition at 4.63

Entry under test: "COc1cc(-c2nc3cnccn3c2Nc2ccc3c(c2)OCCO3)ccc1O" . Its inhibition was 15.7

# inhibition (compound: "CC(C)C(=O)N(Cc1cc2ccccc2[nH]c1=O)C(C)(C)C" ) is 4.65

Lab note: "COc1cc2nncc(SC)c2cc1OC" gave inhibition of 8.55
